Species: Homo sapiens
Assay: To identify inhibition of the IFN signalling (Jak-Stat) pathway via expression of an eGFP reporter gene under the control of an IFN-stimulated response element (ISRE) containing MxA promoter.
Type: functional
Parameters: scale not given: direction of the effect not stated beside the values
Conditions: 30 µM
Listed next: entries and their corresponding Percent Effect.

compound	scale_unit	Percent Effect
CCOc1c(Cl)cccc1NCc1cc(C)on1	%	25.9
CC(C)c1nc(CN2CCCN(Cc3nnc(C4CC4)o3)CC2)no1	%	14.1
CC(=O)N1CCC2(CCN(C(=O)c3ccc(C)c(C(F)(F)F)c3)CC2)C1	%	17.8
CCOc1nnc(CN(C)CC2CCCN2c2cccnn2)s1 (configuration not stated)	%	-2.35
CCn1cc(CN2CCC(c3nnc(CN(C)C)n3CC)CC2)cn1	%	4.82
CSCC(=O)N1CCCN(c2ccccc2C)CC1	%	4.54
CNS(=O)(=O)c1ccc(C(=O)N2CCCC(n3cccn3)C2)cc1 (configuration not stated)	%	1.3
Cc1nn(C)cc1-c1cc(C(F)(F)F)c2c(C)nn(CC(=O)O)c2n1	%	24.1
CCN(Cc1cccc2c1OCO2)C(=O)C(C)c1cccnc1 (configuration not stated)	%	4.49
Cc1ccc(CNC(CN2CCN(C)CC2)c2ccccc2)cc1 (configuration not stated)	%	13.4
CS(=O)(=O)N1CCOCC2(CN(Cc3ccco3)CCO2)C1 (configuration not stated)	%	1.38
Cc1ccc(NC2CCN(C(=O)Cc3csc(C)n3)CC2)nn1	%	4.91

----------
Biological target: Protein translocase subunit SecA (Escherichia coli (strain K12)) (UniProt P10408)
Sequence (P10408 whole entry): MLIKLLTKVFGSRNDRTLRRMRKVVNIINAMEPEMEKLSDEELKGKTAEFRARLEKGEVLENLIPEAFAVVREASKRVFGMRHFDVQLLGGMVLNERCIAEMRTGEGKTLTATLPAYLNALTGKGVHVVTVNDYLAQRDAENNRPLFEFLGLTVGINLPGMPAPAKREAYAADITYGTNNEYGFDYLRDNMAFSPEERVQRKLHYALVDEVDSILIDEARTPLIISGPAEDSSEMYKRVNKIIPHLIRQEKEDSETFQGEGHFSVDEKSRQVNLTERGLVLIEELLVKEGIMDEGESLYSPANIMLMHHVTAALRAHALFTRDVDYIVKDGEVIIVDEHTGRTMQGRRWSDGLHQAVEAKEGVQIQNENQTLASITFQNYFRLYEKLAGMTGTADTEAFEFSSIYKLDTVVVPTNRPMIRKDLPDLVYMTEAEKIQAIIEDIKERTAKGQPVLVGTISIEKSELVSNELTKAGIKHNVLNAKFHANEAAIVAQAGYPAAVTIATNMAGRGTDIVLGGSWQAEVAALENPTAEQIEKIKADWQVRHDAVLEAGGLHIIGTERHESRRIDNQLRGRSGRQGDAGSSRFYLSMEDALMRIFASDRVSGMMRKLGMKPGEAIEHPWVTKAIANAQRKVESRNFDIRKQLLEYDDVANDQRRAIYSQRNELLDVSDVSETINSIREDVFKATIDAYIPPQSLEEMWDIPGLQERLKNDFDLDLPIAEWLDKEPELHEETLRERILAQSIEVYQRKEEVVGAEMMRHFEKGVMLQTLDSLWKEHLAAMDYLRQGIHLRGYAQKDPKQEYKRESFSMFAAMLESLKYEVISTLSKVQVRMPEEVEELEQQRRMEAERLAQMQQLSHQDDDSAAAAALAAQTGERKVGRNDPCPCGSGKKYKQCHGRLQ
Test: Assay to Identify E. coli SecA ATPase Inhibitors
Format: functional
Parameters: scale not given: direction of the effect not stated beside the values
Conditions: 30 µM
Results with a measured potency or affinity are listed apart.
Here, each record is paired with measured Percent Effect data.

compound	Percent Effect (%)
CC(C)Cc1noc(CN2CCOCC2)n1	-1.04
Cc1cnc(CN2CCC(N(C)Cc3nnc(C4CC4)n3C)C2)cn1 (stereo not drawn)	-4.85
Cc1nn(C)c(N(C)C)c1CNCc1ccccc1CN(C)C	-1.22
CN(C)Cc1cc(=O)n2c(n1)CN(C(=O)Cc1ccsc1)CCC2	0.204
COCCN1CCc2cc(C(=O)N(C)C)c(NCC3CC3)nc2CC1	-8.99
Cc1cccc(CN2C[C@@H]3COC[C@]3(CNC(=O)c3ccsc3)C2)n1	-7.55
CN1[C@H](Cn2cccn2)C[C@@H]2CN(C(=O)Cc3cccs3)CC[C@@H]21	-4.49
CS(=O)(=O)CCC(=O)N1CCC2(CCCN(C3CCOCC3)C2=O)C1 (stereo not drawn)	0.12
COCC(=O)N(C)Cc1ccc(Cl)c(Cl)c1	-4.08
O=C1CCSCC(C(=O)N2CCN(C3CCCCC3)CC2)N1 (stereo not drawn)	-2.82
COCCN1CCCC12CCN(C(=O)CC1CCCC1)CC2	-1.94
O=C(NCCCN1CCOCC1)c1cc(-c2ccc3c(c2)CCO3)n[nH]1	-5.47
O=C(c1ccc(F)cc1F)N1C[C@@H](O)[C@H](N2CCOCC2)C1	-1.31
Cc1ccc(N2CCN(C(=O)COc3nccc(C)n3)CC2)nn1	-4.66
CN1CC(=O)N(c2ccsc2)CC12CCN(S(C)(=O)=O)C2 (stereo not drawn)	-4.15
CCOc1ccccc1C1CCCN1 (stereo not drawn)	-5.25
CC(C)CN1C[C@@H]2CN(C(=O)[C@H]3CCCO3)C[C@@H]2C1=O	-2.4
CCC(CC)c1cc(CNC(=O)N2CCOCC2CC)on1 (stereo not drawn)	-3.39
O=S(=O)(c1cccs1)N1CC[C@H](O)[C@@H]1Cc1ccncc1	-3.12
CCNC(=O)CCc1c(C)nc2cc(O)nn2c1C	-0.575
Cc1cccc2cc(CNCCCN3CCOCC3)c(=O)[nH]c12	-7.31
Cc1nc(C)n(C2CCCN(C(=O)Cc3cccnc3)C2)n1 (stereo not drawn)	-6.21
c1cc2n(n1)CC(CNCc1ccc(OC3CCCCC3)nc1)CN2 (stereo not drawn)	-2.12
CN(c1ccc(C(=O)NCCCN2CCOCC2)c(Cl)c1)S(C)(=O)=O	-5.85
COCCOc1cccc(C(=O)N2CCCC(n3cccn3)C2)c1 (stereo not drawn)	-3.05
O=S(=O)(NCC1(O)CCOc2ccccc21)c1ccc(Br)s1 (stereo not drawn)	-7.03
Cc1cc(C)n(CC2CCCCN2C(=O)c2ccc3nncn3c2)n1 (stereo not drawn)	-7.43
CC(C)(C)c1n[nH]c(C2CN(C(=O)CCC3CC3)CCO2)n1 (stereo not drawn)	-3.72
COc1c(CNC2CCc3cc(F)ccc32)c(C)nn1C (stereo not drawn)	-0.933
Cc1cnn(CC2CN(CC(=O)NCc3ccccn3)CCO2)c1 (stereo not drawn)	-3.5
Cc1cc(C)n(C2CCCN(C(=O)COCC(F)(F)F)C2)n1 (stereo not drawn)	-4.46
Cc1noc2ncc(C(=O)N3CCCC3c3ccncc3)cc12 (stereo not drawn)	-7.65
Cn1cnc2c1C(COCc1ccccc1)N(Cc1ccncc1)CC2 (stereo not drawn)	-1.94
CN1CCCC1c1cccc(Cc2ccccc2F)n1 (stereo not drawn)	-3.07
CC1CN(C)c2ccccc2CN1C(=O)c1ccc[nH]1 (stereo not drawn)	-4.68
COc1cccc(COCC(=O)N2CCN(CC(C)(C)O)CC2)c1	1.47
CN(Cc1cccnc1)CC1CCCN1c1cccnn1 (stereo not drawn)	4.47
CC(C)N1CCOCC2(CN(Cc3nccs3)CCO2)C1 (stereo not drawn)	-5.04
Cc1nc(CN2CCC3(CC2)NC(=O)CC3c2ccccc2)cs1 (stereo not drawn)	-3.5
CN(CCNC(=O)N1CCN(Cc2ccon2)CC1)c1ccccc1	-4.87
Cc1nc(CN2CCOCC3(CCN(c4cccnc4)CC3)C2)cs1	-4.45
Cc1ncccc1O[C@H]1CCN(C(=O)c2cccs2)CC[C@@H]1O	-1.97
Cc1csc(Nc2nccnc2C2CCCN2C(=O)C(C)C)n1 (stereo not drawn)	1.4
CS(=O)(=O)c1snnc1C1CCN(Cc2ccncc2)CC1	-6.59
CC(=O)N1CC(=O)N(c2cnn(C)c2)CC12CCN(CC1CC1)C2 (stereo not drawn)	-2.91
Cc1cc(C)n(CC2CN(Cc3cccc(C(N)=O)c3)CCO2)n1 (stereo not drawn)	-2.43
Cc1c[nH]c(CN(C)C(=O)c2cccc(CCC(C)(C)O)c2)n1	-4.48
CC(C(=O)N1CCCN(c2ncccc2C#N)CC1)n1cccn1 (stereo not drawn)	-3.42

The measurements presented in this section are drawn from ChEMBL document CHEMBL3988442.
